# System: Saccharomyces cerevisiae;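 further: PSI is a weighted mean of sequencing reads over stability bins, variants kept only with over 10 reads, mCherry proximal and sfGFP distal, peptide attached via GGGS linker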
# Assay protocol: protein stability index of tFT-peptide fusion (C-terminal peptide) (PSI (0-1 scale)); higher = more stable (slower turnover)
# Condition details: genetic background: wild type; temperature: 30 C
Some sequences, each annotated with its measured protein stability index.
// response body must contain only the number

{"Sequence data": "LCPPPRPPRSHL", "protein stability index": 0.941}

Endpoint output: protein stability index of `LRFMLLSFLVIL` . Value? 0.234

Endpoint output: protein stability index of `PSPVPSLPPFLP` . Value? 0.745

Endpoint output: protein stability index of `HSHAGIGPVVTR` . Value? 0.672

Endpoint output: protein stability index of `FRVSAFFLPFLS` . Value? 0.4

Endpoint output: protein stability index of `EGAVGMSGSLGV` . Value? 0.668
